Entry source: ChEMBL document CHEMBL3046407

Documented mortality across a set of compounds
- System: Leptinotarsa decemlineata
- protocol: Insecticidal activity against adult Leptinotarsa decemlineata infested potato leaves assessed as mortality at 10 mg after 96 hr relative to control
- Type: functional
metric: mortality (%)

{"compound": "CC1(C)C2CCC1(C)C(O)C2 (stereo not drawn)", "readoutUnit": "%", "value": 23.3}
{"compound": "CC12CCC(C1)C(C)(C)C2=O (stereo not drawn)", "readoutUnit": "%", "value": 100}
{"compound": "CC(C)[C@H]1CC[C@@H](C)C[C@@H]1O", "readoutUnit": "%", "value": 33.3}
{"compound": "CC12CCC(C1)C(C)(C)C2O (stereo not drawn)", "readoutUnit": "%", "value": 43.3}
{"compound": "CC12CCC(CC1=O)C2(C)C (stereo not drawn)", "readoutUnit": "%", "value": 56.7}
{"compound": "CC1=CC[C@@H](C(C)(C)O)CC1", "readoutUnit": "%", "value": 16.7}
{"compound": "CC1CCC(C(C)C)C(O)C1 (stereo not drawn)", "readoutUnit": "%", "value": 30}
{"compound": "C=C1C2CCC(C2)C1(C)C (stereo not drawn)", "readoutUnit": "%", "value": 13.3}
